# Tested on: Pseudomonas aeruginosa
# protocolDescription: Antibacterial activity against Pseudomonas aeruginosa ATCC 9027 after 48 hr by two-fold serial dilution method
# Type: functional
# protocolConditions: ATCC 9027, 48 h
measure: MIC (µg/mL)

Examples with answers:
| compound | result |
| --- | --- |
| O=C(COC1=C(Br)C(c2ccccc2)OC1=O)NCc1ccccc1 (stereo unspecified) | 7.81 |
| O=C(O)/C(Br)=C/c1cn(-c2ccccc2)nc1-c1ccc(Br)cc1 | 250 |
| CC1(C)S[C@@H]2[C@H](NC(=O)[C@H](N)c3ccccc3)C(=O)N2[C@H]1C(=O)O | 125 |
| O=C(O)/C(Br)=C/c1ccc(Cl)cc1 | 31.2 |

(A) Cc1nn(-c2ccccc2)c(C)c1/C=C(\Br)C(=O)O
(B) O=C1OC(c2cn(-c3ccccc3)nc2-c2ccccc2)C(Br)=C1O (stereo unspecified)
Exercise: Determine, for A and B , which has the greater value of MIC. When you have decided, please share the label of that item.
Solution: B
